tested on: Saccharomyces cerevisiae; experiment: protein stability index of tFT-peptide fusion (C-terminal peptide) (PSI (0-1 scale)); higher = more stable (slower turnover); conditions: genetic background: wild type; temperature: 30 C;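 further: PSI is a weighted mean of sequencing reads over stability bins, variants kept only with over 10 reads, mCherry proximal and sfGFP distal, peptide attached via GGGS linker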
Tag: true (1) if measured protein stability index is not below 0.7, false (0) if it is.

input sequence: GARGGGRSRGTR
measured on: Saccharomyces cerevisiae
qualitative label: true (1)
--
input sequence: SKLEREKQNKGY
measured on: Saccharomyces cerevisiae
qualitative label: false (0)
--
input sequence: YIHQRKGRKPNE
measured on: Saccharomyces cerevisiae
qualitative label: false (0)
--
input sequence: SLPRPPRPPQSH
measured on: Saccharomyces cerevisiae
qualitative label: false (0)
--
input sequence: PVLPPPLLLCPC
measured on: Saccharomyces cerevisiae
qualitative label: false (0)
--
input sequence: LKKKKNKKQKTE
measured on: Saccharomyces cerevisiae
qualitative label: false (0)
--
input sequence: RTGRTCADRPTP
measured on: Saccharomyces cerevisiae
qualitative label: true (1)
--
input sequence: EVLTSRWCGLIS
measured on: Saccharomyces cerevisiae
qualitative label: true (1)
--
input sequence: QNIRTELTSPRV
measured on: Saccharomyces cerevisiae
qualitative label: false (0)
--
input sequence: WGGTAGWLHIGV
measured on: Saccharomyces cerevisiae
qualitative label: true (1)
--
input sequence: PPSRPPPRLLFA
measured on: Saccharomyces cerevisiae
qualitative label: false (0)
--
input sequence: GKRGKKVKKKSK
measured on: Saccharomyces cerevisiae
qualitative label: false (0)
